Tested on: 380
Experiment: selective drug sensitivity score (sDSS, relative to normal bone marrow) (sDSS (score)); higher = more potent and effective on the cell line relative to normal bone marrow cells;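 further: ALL cell lines in 384-well plates, five doses spanning 10,000-fold, each plate scaled between vehicle and 100 µmol/L benzalkonium chloride controls, sDSS an adapted area-under-curve metric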
Conditions: 72 h
parameter measured: selective drug sensitivity score
Could you keep your reply to the number by itself?

Illustrative cases are given below, each with its answer.
Please give the measured selective drug sensitivity score for this compound: CC(=O)O[C@H]1C(=O)[C@@]2(C)[C@H]([C@H](OC(=O)c3ccccc3)[C@]3(O)C[C@H](OC(=O)[C@H](O)[C@@H](NC(=O)c4ccccc4)c4ccccc4)C(C)=C1C3(C)C)[C@]1(OC(C)=O)CO[C@@H]1C[C@@H]2O [Paclitaxel] (top concentration 1000 nM)
19.9

Try the compound Cc1ccc(-n2nc(C(C)(C)C)cc2NC(=O)Nc2ccc(OCCN3CCOCC3)c3ccccc23)cc1 [Doramapimod] (top concentration 10000 nM)
-0.24

Try the compound CNc1ncc2cc(-c3cc(NC(=O)NCCC(C)(C)C)c(F)cc3C)c(C)nc2n1 (top concentration 10000 nM)
7.76

Proceeding to the next compound to report its selective drug sensitivity score.
Please give the measured selective drug sensitivity score for this compound: Clc1ccccc1C(c1ccccc1)(c1ccccc1)n1cccn1 [TRAM-34] (top concentration 1000 nM)
-0.08

----------
Test system: COG-LL-319h
Assay: selective drug sensitivity score (sDSS, relative to normal bone marrow) (sDSS (score)); higher = more potent and effective on the cell line relative to normal bone marrow cells
Conditions: 72 h
# key: entry, value: selective drug sensitivity score
Could you keep your reply to the number by itself?

Illustrative cases are given below, each with its answer.
Please give the measured selective drug sensitivity score for this compound: COc1cc2c(Nc3ccc(Cl)c(Cl)c3F)ncnc2cc1OC[C@@H]1C[C@@H]2CN(C)C[C@@H]2C1 [Tesevatinib] (top concentration 1000 nM)
-1.36

Try the compound C[C@H](Nc1ncnc2nc[nH]c12)c1cc2cccc(Cl)c2c(=O)n1-c1ccccc1 [Duvelisib] (top concentration 500 nM)
3.56

Try the compound O=C(/C=C/c1cccc(S(=O)(=O)Nc2ccccc2)c1)NO [Belinostat] (top concentration 10000 nM)
11.8

Try the compound CC(O)(CS(=O)(=O)c1ccc(F)cc1)C(=O)Nc1ccc(C#N)c(C(F)(F)F)c1 (centres undefined) [Bicalutamide] (top concentration 10000 nM)
3.72

Try the compound C=CC(=O)Nc1cc(Nc2nccc(-c3cn(C)c4ccccc34)n2)c(OC)cc1N(C)CCN(C)C [Osimertinib] (top concentration 2500 nM)
-4.12

Proceeding to the next compound to report its selective drug sensitivity score.
Please give the measured selective drug sensitivity score for this compound: Cc1nc(Nc2n[nH]c3c2CN(C(=O)N[C@H](CN(C)C)c2ccccc2)C3(C)C)c2sccc2n1 (top concentration 10000 nM)
4.28

----------
Test system: KASUMI-10
Assay: selective drug sensitivity score (sDSS, relative to normal bone marrow) (sDSS (score)); higher = more potent and effective on the cell line relative to normal bone marrow cells
Conditions: 72 h
parameter measured: selective drug sensitivity score
Could you keep your reply to the number by itself?

Illustrative cases are given below, each with its answer.
Please give the measured selective drug sensitivity score for this compound: COc1cc2c(cc1-c1c(C)noc1C)ncc1[nH]c(=O)n([C@H](C)c3ccccn3)c12 [I-BET151] (top concentration 10000 nM)
5.66

Try the compound CC[C@@]1(O)C(=O)OCc2c1cc1n(c2=O)Cc2cc3c(CN(C)C)c(O)ccc3nc2-1 [Topotecan] (top concentration 10000 nM)
18

Try the compound CC(C)Oc1ccc(-c2nn([C@@H](C)c3oc4ccc(F)cc4c(=O)c3-c3cccc(F)c3)c3ncnc(N)c23)cc1F [TGR-1202] (top concentration 2500 nM)
-2.56

Try the compound Nc1ccccc1NC(=O)c1ccc(CNc2nccc(-c3cccnc3)n2)cc1 [Mocetinostat] (top concentration 10000 nM)
6.74

Try the compound CC(O)(CS(=O)(=O)c1ccc(F)cc1)C(=O)Nc1ccc(C#N)c(C(F)(F)F)c1 (centres undefined) [Bicalutamide] (top concentration 10000 nM)
-1.68

Try the compound Clc1ccc(C(c2ccccc2Cl)C(Cl)Cl)cc1 (centres undefined) [Mitotane] (top concentration 10000 nM)
-0.08

Try the compound COc1cc(Nc2ncc(F)c(Nc3ccc4c(n3)NC(=O)C(C)(C)O4)n2)cc(OC)c1OC [Tamatinib] (top concentration 10000 nM)
8.58

Try the compound Cn1cc(-c2ccc(F)c(C(F)(F)F)c2)nc1C1CCN(c2ncnc3[nH]ncc23)CC1 (top concentration 10000 nM)
-0.14

Proceeding to the next compound to report its selective drug sensitivity score.
Please give the measured selective drug sensitivity score for this compound: CC(=O)O[C@@]12CO[C@@H]1C[C@H](O)[C@@]1(C)C(=O)[C@H](O)C3=C(C)[C@@H](OC(=O)[C@H](O)[C@@H](NC(=O)OC(C)(C)C)c4ccccc4)C[C@@](O)([C@@H](OC(=O)c4ccccc4)[C@H]21)C3(C)C [Docetaxel] (top concentration 1000 nM)
14.6
